# Test system: recombinant human CFTR carrying the premature stop codon (PTC) mutation G542X
# protocolSummary: CFTR-PTC mutant translation readthrough, Nanoluc tagged CFTR luminescence (G542X cell line)
# Type: cell-based
# conditionSummary: fold over 10 μM G-418; in combination with G418; G542X cell line
experimentalReadout: CFTR G542X ACTIVITY Fold 10 μM G-418

Consider the reported CFTR G542X ACTIVITY Fold 10 μM G-418 for these compounds:
{"columns": ["compound", "testedOn", "result"],
 "data": [
  ["NCc1nnc(-c2ccc(OCc3c(Cl)cccc3Cl)cc2)o1 [Example 226]", "recombinant human CFTR carrying the premature stop codon (PTC) mutation G542X", "B′ (B′ = ≥5X to <10X)"],
  ["O=C1N[C@H](CO)C(=O)N1c1ccc(OCc2c(Cl)cccc2Cl)cn1", "recombinant human CFTR carrying the premature stop codon (PTC) mutation G542X", "A′ (A′ = ≥10X)"],
  ["Cc1cccc(C)c1COc1ccc(N2CC(CO)OC2=O)cc1 (stereo not drawn)", "recombinant human CFTR carrying the premature stop codon (PTC) mutation G542X", "B′ (B′ = ≥5X to <10X)"],
  ["OCc1cc(-c2ncc(OCc3c(Cl)cccc3C(F)(F)F)cn2)[nH]n1", "recombinant human CFTR carrying the premature stop codon (PTC) mutation G542X", "A′ (A′ = ≥10X)"],
  ["CCc1cccc(C(F)(F)F)c1COc1cnc(-n2ccc(CO)n2)nc1", "recombinant human CFTR carrying the premature stop codon (PTC) mutation G542X", "A′ (A′ = ≥10X)"],
  ["OCC1CCCN(c2ncc(OCc3c(Cl)cccc3Cl)cn2)C1 (stereo not drawn)", "recombinant human CFTR carrying the premature stop codon (PTC) mutation G542X", "A′ (A′ = ≥10X)"],
  ["O=CNCC1CCCN(c2ncc(OCc3c(Cl)cccc3Cl)cn2)C1 (stereo not drawn)", "recombinant human CFTR carrying the premature stop codon (PTC) mutation G542X", "B′ (B′ = ≥5X to <10X)"],
  ["Cc1cccc(C(F)(F)F)c1COc1ccc(-n2ncc(CO)n2)nc1", "recombinant human CFTR carrying the premature stop codon (PTC) mutation G542X", "A′ (A′ = ≥10X)"],
  ["O=C1CN(c2ccc(OCc3c(Cl)cccc3C(F)(F)F)cn2)C(=O)N1", "recombinant human CFTR carrying the premature stop codon (PTC) mutation G542X", "A′ (A′ = ≥10X)"],
  ["Cc1cccc(C(F)(F)F)c1COc1ccc(N2C(=O)NC(C)(C)C2=O)nc1", "recombinant human CFTR carrying the premature stop codon (PTC) mutation G542X", "A′ (A′ = ≥10X)"]
]}

Ask: Hi! What's the reported CFTR G542X ACTIVITY Fold 10 μM G-418 for Cc1cccc(C(F)(F)F)c1COc1cnc(N2CCC(N)CC2)nc1 on recombinant human CFTR carrying the premature stop codon (PTC) mutation G542X?
Reply: A′ (A′ = ≥10X)

Ask: Record lookup: for recombinant human CFTR carrying the premature stop codon (PTC) mutation G542X, what CFTR G542X ACTIVITY Fold 10 μM G-418 belongs to OCc1ncn(-c2ccc(OCc3c(Cl)cccc3C(F)(F)F)cn2)n1 ?
Reply: A′ (A′ = ≥10X)

Ask: Give recorded CFTR G542X ACTIVITY Fold 10 μM G-418 with recombinant human CFTR carrying the premature stop codon (PTC) mutation G542X for the following compound: Cc1cccc(C(F)(F)F)c1COc1cnc(N2CCC(O)(c3cccnc3)CC2)nc1
Reply: A′ (A′ = ≥10X)

Ask: Hello, I am looking for reported CFTR G542X ACTIVITY Fold 10 μM G-418 with recombinant human CFTR carrying the premature stop codon (PTC) mutation G542X for NC1(CO)CCN(c2ncc(OCc3c(Cl)cccc3C(F)(F)F)cn2)C1 (stereo not drawn) . Could you help?
Reply: A′ (A′ = ≥10X)

Ask: Hello, I am looking for reported CFTR G542X ACTIVITY Fold 10 μM G-418 with recombinant human CFTR carrying the premature stop codon (PTC) mutation G542X for Cc1ccc(C(F)(F)F)c(COc2ccc(-n3cc(CO)nn3)cc2)c1F . Could you help?
Reply: B′ (B′ = ≥5X to <10X)

Ask: Hello, I am looking for reported CFTR G542X ACTIVITY Fold 10 μM G-418 with recombinant human CFTR carrying the premature stop codon (PTC) mutation G542X for OCc1cn(-c2ncc(OCc3c(Cl)cccc3OC(F)F)cn2)cn1 . Could you help?
Reply: A′ (A′ = ≥10X)

Ask: Lookup: CFTR G542X ACTIVITY Fold 10 μM G-418 / recombinant human CFTR carrying the premature stop codon (PTC) mutation G542X / OCc1cnn(-c2ncc(OCc3c(Cl)cccc3Cl)cn2)n1
Reply: A′ (A′ = ≥10X)

Ask: Report CFTR G542X ACTIVITY Fold 10 μM G-418 for OC[C@H]1CN(c2ncc(OCc3c(Cl)cccc3Cl)cn2)CCO1 tested on recombinant human CFTR carrying the premature stop codon (PTC) mutation G542X.
Reply: A′ (A′ = ≥10X)

Ask: Record lookup: for recombinant human CFTR carrying the premature stop codon (PTC) mutation G542X, what CFTR G542X ACTIVITY Fold 10 μM G-418 belongs to Cc1cccc(C(F)(F)F)c1COc1cnc(N2CCNCC2)nc1 ?
Reply: A′ (A′ = ≥10X)

Ask: What is its CFTR G542X ACTIVITY Fold 10 μM G-418 for recombinant human CFTR carrying the premature stop codon (PTC) mutation G542X? Entry: OCc1cn(-c2ncc(OCc3c(Cl)cccc3C(F)(F)F)cn2)nn1
Reply: A′ (A′ = ≥10X)

Ask: So what CFTR G542X ACTIVITY Fold 10 μM G-418 did CC1CC(CO)CN1c1ncc(OCc2c(Cl)cccc2Cl)cn1 (stereo not drawn) get with recombinant human CFTR carrying the premature stop codon (PTC) mutation G542X?
Reply: A′ (A′ = ≥10X)

Ask: // lookup CFTR G542X ACTIVITY Fold 10 μM G-418 | system=recombinant human CFTR carrying the premature stop codon (PTC) mutation G542X | key= OC[C@@H]1CN(c2ncc(OCc3c(Cl)cccc3Cl)cn2)C[C@@H](C(F)(F)F)O1 (racemic)
Reply: A′ (A′ = ≥10X)

Ask: For the record Clc1cccc(Cl)c1COc1cnc(N2CC3CC2CO3)nc1 (stereo not drawn) , what value of CFTR G542X ACTIVITY Fold 10 μM G-418 is listed for recombinant human CFTR carrying the premature stop codon (PTC) mutation G542X?
Reply: A′ (A′ = ≥10X)

Ask: Test system recombinant human CFTR carrying the premature stop codon (PTC) mutation G542X; read-out CFTR G542X ACTIVITY Fold 10 μM G-418; what value for CC(C)C1NC(=O)N(c2ccc(OCc3c(Cl)cccc3C(F)(F)F)cc2)C1=O (stereo not drawn) ?
Reply: A′ (A′ = ≥10X)

Ask: I'm curious: which CFTR G542X ACTIVITY Fold 10 μM G-418 was measured for CC(=O)N[C@H](CO)C(=O)Nc1ccc(OCc2c(Cl)cccc2Cl)cn1 tested on recombinant human CFTR carrying the premature stop codon (PTC) mutation G542X?
Reply: C′ (C′ = <5X)

Ask: Requested read-out CFTR G542X ACTIVITY Fold 10 μM G-418, target or system recombinant human CFTR carrying the premature stop codon (PTC) mutation G542X, entry O=C1CN(c2ncc(OCc3c(Cl)cccc3C(F)(F)F)cn2)C[C@H](CO)N1
Reply: A′ (A′ = ≥10X)

Ask: Notebook entry, recombinant human CFTR carrying the premature stop codon (PTC) mutation G542X assay: CFTR G542X ACTIVITY Fold 10 μM G-418 of NC(=O)N1CCCN(c2ncc(OCc3c(Cl)cccc3Cl)cn2)CC1 = ?
Reply: A′ (A′ = ≥10X)
